# protocol: Pharmacokinetic analyses: apatinib and gefitinib plasma concentrations (LC–MS/MS, non‐compartmental)
# run_conditions: human, plasma, oral, Tmax, Table S6, Gefitinib 250mg + apatinib, this study; geometric mean, SD
readout: Tmax (h)
Respond with the bare value in h.

Query: What value of measured Tmax is listed for COc1cc2ncnc(Nc3ccc(F)c(Cl)c3)c2cc1OCCCN1CCOCC1 [Gefitinib] ?
Reply: 3.9

----------
# protocol: Pharmacokinetic analyses: apatinib and gefitinib plasma concentrations (LC–MS/MS, non‐compartmental)
# run_conditions: human, plasma, oral, CLss, steady state, Gefitinib 250mg + apatinib; Mean±SD
readout: clearance
Field: value (include unit after the number)

Query: What value of measured clearance is listed for COc1cc2ncnc(Nc3ccc(F)c(Cl)c3)c2cc1OCCCN1CCOCC1 ?
Reply: 617 mL/min

----------
# protocol: Pharmacokinetic analyses: apatinib and gefitinib plasma concentrations (LC–MS/MS, non‐compartmental)
# run_conditions: human, plasma, oral, AUCss, steady state, Gefitinib 250mg + apatinib; Mean±SD
readout: AUC
Field: value (include unit after the number)

Query: What value of measured AUC is listed for COc1cc2ncnc(Nc3ccc(F)c(Cl)c3)c2cc1OCCCN1CCOCC1 ?
Reply: 7220 ng·h/mL

----------
# protocol: Pharmacokinetic analyses: apatinib and gefitinib plasma concentrations (LC–MS/MS, non‐compartmental)
# run_conditions: human, plasma, oral, AUC0-24multi, Table S6, Gefitinib 250mg + apatinib, this study, multiple-dosage regimen; geometric mean, SD
readout: AUC (ng·h/mL)
Respond with the bare value in ng·h/mL.

Query: What value of measured AUC is listed for COc1cc2ncnc(Nc3ccc(F)c(Cl)c3)c2cc1OCCCN1CCOCC1 ?
Reply: 8130

----------
# protocol: Pharmacokinetic analyses: apatinib and gefitinib plasma concentrations (LC–MS/MS, non‐compartmental)
# run_conditions: human, plasma, oral, AUC0‐24, gefitinib 250 mg + apatinib 500 or 250 mg, Day 1 (n = 11); Table 2: Geometric Mean (%CV)
readout: AUC (ng·h/mL)
Respond with the bare value in ng·h/mL.

Query: What value of measured AUC is listed for COc1cc2ncnc(Nc3ccc(F)c(Cl)c3)c2cc1OCCCN1CCOCC1 ?
Reply: 3440

----------
# protocol: Pharmacokinetic analyses: apatinib and gefitinib plasma concentrations (LC–MS/MS, non‐compartmental)
# run_conditions: human, plasma, oral, AUC0‐∞, gefitinib 250 mg + apatinib 500 or 250 mg, Day 1 (n = 11); Geometric Mean (%CV)
readout: AUC
Field: value (include unit after the number)

Query: What value of measured AUC is listed for COc1cc2ncnc(Nc3ccc(F)c(Cl)c3)c2cc1OCCCN1CCOCC1 ?
Reply: 6400 ng·h/mL

----------
# protocol: Pharmacokinetic analyses: apatinib and gefitinib plasma concentrations (LC–MS/MS, non‐compartmental)
# run_conditions: human, plasma, oral, CL, gefitinib 250 mg + apatinib 500 or 250 mg, Day 15 (n = 11); Mean (SD)
readout: clearance (mL/min)
Respond with the bare value in mL/min.

Query: What value of measured clearance is listed for COc1cc2ncnc(Nc3ccc(F)c(Cl)c3)c2cc1OCCCN1CCOCC1 ?
Reply: 533

----------
# protocol: Pharmacokinetic analyses: apatinib and gefitinib plasma concentrations (LC–MS/MS, non‐compartmental)
# run_conditions: human, plasma, oral, AUC0‐24, gefitinib 250 mg + apatinib 500 or 250 mg, Day 15 (n = 11); Table 2: Geometric Mean (%CV)
readout: AUC
Field: value (include unit after the number)

Query: What value of measured AUC is listed for COc1cc2ncnc(Nc3ccc(F)c(Cl)c3)c2cc1OCCCN1CCOCC1 ?
Reply: 7980 ng·h/mL
